Entries and their Plant response rating (0 to 100 scale), Kochia
Tested on: kochia (Kochia scoparia)
Test: Test A preemergence, directed soil spray, visual injury rating
Type: in vivo
Settings: 125 g ai/ha, 0 is no effect, 100 is complete control
Text: Seeds of plant species selected from barnyardgrass (Echinochloa crus-galli), kochia (Kochia scoparia), ragweed (common ragweed, Ambrosia elatior), ryegrass, It. (Italian ryegrass, Lolium multiflorum), foxtail, giant (giant foxtail, Setaria faberii), and pigweed (Amaranthus retroflexus), were planted into a blend of loam soil and sand and treated preemergence with a directed soil spray using test chemicals formulated in a non-phytotoxic solvent mixture which included a surfactant. […]
Keep it simple and answer with nothing but the number.

>>> measurement("CCC(=O)Oc1c(C)nn(C)c(=O)c1-c1c(C)ccc2sccc12")
20
>>> measurement("Cc1cc2c(Cl)ccc(-c3c(O)c(C)nn(C)c3=O)c2o1")
0
>>> measurement("CC(=O)Oc1c(C)nn(C)c(=O)c1-c1c(C(F)(F)F)ccc2cc(C)oc12")
20
>>> measurement("CCOC(=O)Oc1c(C)nn(C)c(=O)c1-c1c(C)sc2ncccc12")
0
>>> measurement("COC(=O)Oc1c(C)nn(C)c(=O)c1-c1cccc2cc(C)oc12")
20

From here, focus on the item given below.
Lookup: Endpoint output: Plant response rating (0 to 100 scale), Kochia of "Cc1cnc2sc(C)c(-c3c(O)c(C)nn(C)c3=O)c2c1" . Value?
Found: 0
